# Test system: MAb Hs-3
# Format: binding
# Reactivity with monoclonal antibody Hs-3, OD values at 492 nm per record follows
measurement.name: Reactivity with monoclonal antibody Hs-3, OD values at 492 nm

{"entry.sequence": "DVRMINIE [42-DVRMINIE-49]", "reported.result": 0.043}
{"entry.sequence": "IMANDKPT [33-IMANDKPT-40]", "reported.result": 0.017}
{"entry.sequence": "EYSSSVKL [273-EYSSSVKL-280]", "reported.result": 0.110}
{"entry.sequence": "IVVEYSSS [270-IVVEYSSS-277]", "reported.result": 0.112}
{"entry.sequence": "YSAQVGASQ [155-YSAQVGASQ-163]", "reported.result": 0.334}
{"entry.sequence": "VVEYSSSV [271-VVEYSSSV-278]", "reported.result": 0.090}
{"entry.sequence": "PTLDVRMI [39-PTLDVRMI-46]", "reported.result": 0.025}
{"entry.sequence": "LDVRMINI [41-LDVRMINI-48]", "reported.result": 0.082}

* * *

# System: MAb Hs-3
# Type: binding
hey, just use Y if measured Reactivity with monoclonal antibody Hs-3, OD values at 492 nm is less than 0.1, otherwise N

{"entry.sequence": "VEYSSSVK [272-VEYSSSVK-279]", "discrete.label": "N"}
{"entry.sequence": "TLDVRMIN [40-TLDVRMIN-47]", "discrete.label": "Y"}
{"entry.sequence": "MINIEASQ [45-MINIEASQ-52]", "discrete.label": "Y"}
{"entry.sequence": "NIEASQLA [47-NIEASQLA-54]", "discrete.label": "Y"}
{"entry.sequence": "NHGNYSAQVGASQ [151-NHGNYSAQVGASQ-163]", "discrete.label": "N"}
{"entry.sequence": "DKPTLDVR [37-DKPTLDVR-44]", "discrete.label": "Y"}
{"entry.sequence": "SSVKLTSG [276-SSVKLTSG-283]", "discrete.label": "N"}
{"entry.sequence": "AIVVEYSS [269-AIVVEYSS-276]", "discrete.label": "N"}
{"entry.sequence": "SSSVKLTS [275-SSSVKLTS-282]", "discrete.label": "N"}
{"entry.sequence": "YSSSVKLT [274-YSSSVKLT-281]", "discrete.label": "N"}
{"entry.sequence": "VRMINIEA [43-VRMINIEA-50]", "discrete.label": "N"}
{"entry.sequence": "ANDKPTLD [35-ANDKPTLD-42]", "discrete.label": "Y"}
{"entry.sequence": "YSAQVGASQAAKF [155-YSAQVGASQAAKF-167]", "discrete.label": "N"}
{"entry.sequence": "SENHGNYSAQVGASQ [149-SENHGNYSAQVGASQ-163]", "discrete.label": "N"}
